Listing of entries alongside the reported IC50.
Tested on: HTT mRNA
RUN DESCRIPTION: RT-qPCR splicing assay, HTT canonical (CJ) and alternative (AJ) junction mRNA
Assay type: cell-based, human
CONDITION SUMMARY: Homo sapiens, 24 h, Table 3A; A673 or K562 cells, 24 h treatment; read-out: HTT CJ (IC50, decrease in CJ mRNA)

Check out these entries, answers already filled in.
For COc1cc(-c2ccc(-c3ccc(N4CCC(NC5CC(C)(C)C5)C4)nn3)c(O)c2)cnn1 (stereo not shown) [Compound 352] on HTT mRNA, measured IC50 was 100 to 1000 nM

For COc1cc(-c2ccc(-c3ccc(N4CC[C@H](N[C@H]5C[C@@H](F)C5)C4)nn3)c(O)c2)ncn1 [Compound 407] on HTT mRNA, measured IC50 was 100 to 1000 nM

For COc1cc(-c2ccc(-c3ccc(N4CC[C@H](N(C)C5CCC5)C4)nn3)c(O)c2)cnn1 [Compound 239] on HTT mRNA, measured IC50 was < 100 nM

Continuing:
For COc1cc(-c2ccc(-c3ccc(N4CC(F)[C@@H](NC(C)(C)C)C4)nn3)c(O)c2)cnn1 (stereo in doubt) [Compound 217] on HTT mRNA, measured IC50 was 100 to 1000 nM

* * *

Listing of entries alongside the reported IC50.
System: SMN2 mRNA
RUN DESCRIPTION: RT-qPCR splicing assay panel, SMN2 canonical junction (CJ) mRNA
Assay type: cell-based, human
CONDITION SUMMARY: Homo sapiens, canonical junction (CJ) mRNA, RT-qPCR panel, Table 4A; read-out: SMN2, decrease in CJ mRNA levels, IC50

Check out these entries, answers already filled in.
Notebook: Cc1cn2cc(-c3ccc(-c4ccc(N5CCC(NC6CCC6)C5)nn4)c(O)c3)ncc2n1 (centres unmarked) , IC50 read as < 100 nM

Notebook: COc1cc(-c2ccc(-c3ccc(N4CCC(NC(C)(C)C)C4=O)nn3)c(O)c2)cnn1 (centres unmarked) , IC50 read as 1000 to 10000 nM

Notebook: Cc1ncc(-c2cc(O)c(-c3ccc(N4CC[C@H](N(C)C5CCC5)C4)nn3)cc2F)s1 , IC50 read as < 100 nM

Notebook: CN(C1CCC1)[C@@H]1CCN(c2ccc(-c3cc(F)c(-c4cn[nH]c4)cc3O)nn2)C1 , IC50 read as < 100 nM

Notebook: CN(C)c1cc(-c2ccc(-c3ccc(N4CCC(NC5CCC5)C4)nn3)c(O)c2)cnn1 (centres unmarked) , IC50 read as > 10000 nM

Notebook: COc1cc(-c2ccc(-c3ccc(N4CC[C@H](NC(C)(C)C)C4)nn3)c(O)c2)cnn1 , IC50 read as < 100 nM

Notebook: Cc1ncc(-c2cc(O)c(-c3ccc(N4CC[C@@H](NC5CCC5)C4)nn3)cc2F)o1 , IC50 read as < 100 nM

Continuing:
Notebook: COc1cc(-c2ccc(-c3ccc(N4CCC(C)(NC(C)C)C4)nn3)c(O)c2)cnn1 (centres unmarked) , IC50 read as < 100 nM

* * *

Tested on: HTT mRNA
RUN DESCRIPTION: RT-qPCR splicing assay, HTT canonical (CJ) and alternative (AJ) junction mRNA
Format: cell-based, human
CONDITION SUMMARY: Homo sapiens, 24 h, Table 3B; A673 or K562 cells, 24 h treatment; read-out: HTT CJ (IC50, decrease in CJ mRNA)
pIC50: −log10 of the molar value.
Listing of entries alongside the reported pIC50.

Check out these entries, answers already filled in.
Notebook: Cc1nc2cc(O)c(-c3ccc(N4CCC(NC(C)(C)C(C)(C)C)C4)nn3)cc2o1 (centres unmarked) , pIC50 read as 6.00 to 7.00

Notebook: Cc1nc2cc(O)c(-c3cnc(N4CC[C@@H](N(C)C(C)(C)C)C4)nn3)cc2o1 , pIC50 read as 6.00 to 7.00

Notebook: Cc1nc2ccc(-c3ccc(N4CCC(NC(C)(C)C)C4)nn3)nc2o1 (centres unmarked) , pIC50 read as > 7.00

Notebook: Cc1nc2cc(O)c(-c3ccc(N4CC[C@H](N(C)C(C)(C)C)C4)nn3)cc2o1 , pIC50 read as > 7.00

Notebook: Cn1ccc2cc(O)c(-c3ccc(N4CC[C@H](NC(C)(C)C)C4)nn3)cc2c1=O , pIC50 read as 6.00 to 7.00

Notebook: Cc1ncc2cc(-c3ccc(N4CCC(NC(C)(C)C)C4)nn3)c(O)cc2n1 (centres unmarked) , pIC50 read as < 5.00

Continuing:
Notebook: Cc1nc2cc(O)c(-c3ccc(N4CCC(NC(C)(C)C(C)C)C4)nn3)cc2o1 (centres unmarked) , pIC50 read as 6.00 to 7.00

Notebook: Cc1nc2cc(O)c(-c3cnc(N4C[C@@H](C)N[C@@H](C5CC5)C4)nn3)cc2o1 , pIC50 read as 5.00 to 6.00

Notebook: Cc1nc2cc(O)c(-c3ccc(N4CCC(NC5CCC5)C4)nn3)cc2o1 (centres unmarked) , pIC50 read as < 5.00

Notebook: Cc1nc2cc(O)c(-c3cnc(N4CC[C@H](NC(C)(C)C)C4)nn3)cc2o1 , pIC50 read as > 7.00

Notebook: Cn1c(=O)oc2cc(-c3ccc(N4CCC(NC(C)(C)C)C4)nn3)c(O)cc21 (centres unmarked) , pIC50 read as 6.00 to 7.00

* * *

Listing of entries alongside the reported AC50.
Test system: HTT mRNA
RUN DESCRIPTION: RT-qPCR splicing assay, HTT canonical (CJ) and alternative (AJ) junction mRNA
Type: cell-based, human
CONDITION SUMMARY: Table 3A; A673 or K562 cells, 24 h treatment; read-out: HTT AJ (AC50, increase in AJ mRNA)

Check out these entries, answers already filled in.
For Cc1nc(-c2ccc(-c3ccc(N4CCC(NC5CCC5)C4)nn3)c(O)c2)cs1 (stereo not shown) [Compound 412] on HTT mRNA, measured AC50 was > 10000 nM

For CN([C@@H]1CCN(c2ccc(-c3ccc(-c4cn[nH]c4)cc3O)nn2)C1)C(C)(C)C on HTT mRNA, measured AC50 was < 100 nM

For COc1cc(-c2ccc(-c3ccc(N4CC[C@H](NC5(C)CC5)C4)nn3)c(O)c2)cnn1 on HTT mRNA, measured AC50 was < 100 nM

For COc1cc(-c2ccc(-c3ccc(N4CC[C@@H](NC5(C)CC5)C4)nn3)c(O)c2)cnn1 on HTT mRNA, measured AC50 was < 100 nM

For Oc1cc(-c2cn[nH]c2)ccc1-c1ccc(N2CCC(NC3CC3)C2)nn1 (stereo not shown) [Compound 100] on HTT mRNA, measured AC50 was < 100 nM

Continuing:
For Cc1nc(-c2ccc(-c3ccc(N4CCC(NC5CCC5)C4)nn3)c(O)c2)cs1 (stereo not shown) [Compound 413] on HTT mRNA, measured AC50 was 1000 to 10000 nM

For Oc1cc(-c2cn[nH]c2)ccc1-c1ccc(N2CCC(NC3CC3)C2)nn1 (stereo not shown) [Compound 102] on HTT mRNA, measured AC50 was > 10000 nM

* * *

Listing of entries alongside the reported IC50.
Tested on: SMN2 mRNA
RUN DESCRIPTION: RT-qPCR splicing assay panel, SMN2 canonical junction (CJ) mRNA
Assay type: cell-based, human
CONDITION SUMMARY: Homo sapiens, canonical junction (CJ) mRNA, RT-qPCR panel, Table 4A; read-out: SMN2, decrease in CJ mRNA levels, IC50

Check out these entries, answers already filled in.
Notebook: COc1cc(-c2cc(O)c(-c3ccc(N4CC[C@H](NC5CC5)C4)nn3)cc2F)cnn1 , IC50 read as < 0.1 µM

Notebook: CCOc1cc(-c2ccc(-c3ccc(N4CCC(NCC5CC5)C4)nn3)c(O)c2)ncn1 (stereo not shown) , IC50 read as > 10 µM

Continuing:
Notebook: Cn1cc2nc(-c3ccc(-c4ccc(N5CCC(NC6CCC6)C5)nn4)c(O)c3)ccc2n1 (stereo not shown) , IC50 read as 0.1 to 1 µM

Notebook: Cc1nsc(-c2cc(O)c(-c3ccc(N4CC[C@H](NCC5CC5)C4)nn3)cc2F)n1 , IC50 read as < 0.1 µM

Notebook: Cc1ncc(-c2cc(O)c(-c3ccc(N4CCC(CNC(C)(C)C)C4)nn3)cc2F)s1 (stereo not shown) , IC50 read as 1 to 10 µM

Notebook: Oc1cc(-c2cnc(C(F)F)s2)c(F)cc1-c1ccc(N2CCC(NC3CCC3)C2)nn1 (stereo not shown) , IC50 read as 0.1 to 1 µM

Notebook: Cc1nnc(-c2ccc(-c3ccc(N4CC[C@@H](NCC5CC5)C4)nn3)c(O)c2)s1 , IC50 read as < 0.1 µM

Notebook: COc1nc(-c2ccc(N3CCC(NC4CCC4)C3)nn2)ccc1-c1cnc(C)s1 (stereo not shown) , IC50 read as < 0.1 µM
